# Measured On: pKSI^D40N (Pseudomonas putida, UniProt P07445, D34C/D40N)
# Sequence (P07445 whole entry D34C/D40N): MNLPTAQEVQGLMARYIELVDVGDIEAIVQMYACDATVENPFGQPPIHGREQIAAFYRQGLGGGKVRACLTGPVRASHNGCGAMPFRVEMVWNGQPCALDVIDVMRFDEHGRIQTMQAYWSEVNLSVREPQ
# Format: binding
# Experimental Conditions: Displacement assay; pH 7.2, 25 °C; uncorrected for enzyme ionization enthalpy
Value Kind: ∆Hrel (relative enthalpy of binding)

{"Input Smiles": "Oc1ccc(F)c(F)c1", "Value Kind": "∆Hrel (relative enthalpy of binding)", "Observed": "-8.53 (0.05) kcal/mol"}
{"Input Smiles": "Oc1cc(F)c(F)c(F)c1", "Value Kind": "∆Hrel (relative enthalpy of binding)", "Observed": "-5.8 (0.3) kcal/mol"}
{"Input Smiles": "Oc1ccc(F)cc1", "Value Kind": "∆Hrel (relative enthalpy of binding)", "Observed": "-9.8 (0.1) kcal/mol"}
{"Input Smiles": "Oc1cc(F)cc(F)c1", "Value Kind": "∆Hrel (relative enthalpy of binding)", "Observed": "-6.7 (0.8) kcal/mol"}
